Origin of values: patent US8389764B2

target-or-test-system: TAFIa (Homo sapiens)
Sequence (Q96IY4 115-423): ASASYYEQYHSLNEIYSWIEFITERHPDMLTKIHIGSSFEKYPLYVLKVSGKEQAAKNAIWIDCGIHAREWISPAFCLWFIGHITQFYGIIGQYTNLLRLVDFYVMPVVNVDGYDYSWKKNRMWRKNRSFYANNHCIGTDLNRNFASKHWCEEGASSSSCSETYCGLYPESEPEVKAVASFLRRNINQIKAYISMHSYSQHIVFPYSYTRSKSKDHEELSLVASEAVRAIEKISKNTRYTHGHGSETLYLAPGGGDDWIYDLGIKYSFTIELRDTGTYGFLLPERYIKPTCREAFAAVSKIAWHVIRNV
assay-comment: TAFIa inhibition, Actichrome plasma TAFI activity kit (American Diagnostica)
test-parameters: 15 min preincubation at room temperature, read at 420 nm, duplicate determination of serial dilutions
Numbered stars: 1 amine (or outer) side, 2 acyl side, 3 side chain; on linkers, the order of the positions; unused ones are H or OH. Square brackets hold non-standard residues; d marks the D form. Peptide text beside a SMILES is read from it. * marks the point of attachment. ξ: configuration not given here. dCha = N[C@H](CC1CCCCC1)C(=O)O; Cbz = O=C(OCc1ccccc1)*; CO = O=C([*:1])[*:2]; ξV = CC(C)C(N)C(=O)O
measurement-name: IC50 (nM)

Check out these entries, answers already filled in.
Return the recorded IC50 value; entry: CC(C)C(NC(=O)C(NC(=O)[C@@H](CCCCNC(=O)OCc1ccccc1)NC(=O)N[C@@H](CCCNC(=N)N)C(=O)O)C(C)C)C(N)=O (stereo partly drawn) [Example 139] ({Arg-CO}-[dK](Cbz)-[ξV]-[ξV]-NH2) 376

Return the recorded IC50 value; entry: CC(CNC(=O)[C@@H](CC1CCCCC1)NC(=O)N[C@@H](CCCCN)C(=O)O)c1ccccc1 (stereo partly drawn) [Example 12] 1260

Return the recorded IC50 value; entry: CC1(C)[C@@H]2CC[C@@]1(C)[C@@H](NC(=O)[C@@H](CC1CCCCC1)NC(=O)N[C@H](Cc1ccc(N)nc1)C(=O)O)C2 [Example 94] 109000

Return the recorded IC50 value; entry: CCOC(=O)[C@@H](NC(=O)[C@@H](CC1CCCCC1)NC(=O)N[C@@H](CCCCN)C(=O)O)C(C)C [Example 49] ({Lys-CO}-[dCha]-Val-OEt) 106

Return the recorded IC50 value; entry: CC1CCCCC1NC(=O)[C@@H](NC(=O)[C@@H](CCCCNC(=O)OCc1ccccc1)NC(=O)N[C@@H](CCCCN)C(=O)O)C(C)C (stereo partly drawn) [Example 128] 391

(P) CCC[C@@H](NC(=O)N[C@@H](CCCCN)C(=O)O)C(=O)N[C@H]1C[C@H]2CC[C@]1(C)C2(C)C [Example 103]
(Q) CC(C)CC(C)NC(=O)[C@@H](CC1CCCCC1)NC(=O)N[C@@H](CCCCN)C(=O)O (stereo partly drawn) [Example 75]
(R) CC1(C)[C@@H]2CC[C@@]1(C)[C@@H](NC(=O)[C@@H](CC1CCCCC1)NC(=O)N[C@@H](CSCCN)C(=O)O)C2 [Example 142a]
Could you please sort these 3 entries by IC50 from high to low? Put the labels in the requested order and write them down. Q, P, R

###

target-or-test-system: UniProtKB Q96IY4
assay-comment: TAFIa inhibition, Actichrome plasma TAFI activity kit (American Diagnostica)
test-parameters: 15 min preincubation at room temperature, read at 420 nm, duplicate determination of serial dilutions
pIC50: −log10 of the molar value.
measurement-name: pIC50

Return the recorded pIC50 value; entry: NCCCC[C@H](NC(=O)N[C@H](CC1CCCCC1)C(=O)NCC(c1ccccc1)c1ccccc1)C(=O)O 6.93

Return the recorded pIC50 value; entry: COc1ccc(CNC(=O)[C@@H](CC2CCCCC2)NC(=O)N[C@@H](CCCCN)C(=O)O)cc1 6.04

(P) CC(C)CNC(=O)[C@@H](CC1CCCCC1)NC(=O)N[C@@H](CCCCN)C(=O)O
(Q) CC1(C)[C@@H]2CC[C@@]1(C)[C@@H](NC(=O)[C@@H](CC1CCC1)NC(=O)N[C@@H](CCCCN)C(=O)O)C2
(R) CC(C)C[C@@H](NC(=O)N[C@@H](CCCCN)C(=O)O)C(=O)NC1C[C@H]2CC[C@]1(C)C2(C)C (stereo partly shown)
(S) CC1(C)[C@@H]2CC[C@@]1(C)[C@@H](NC(=O)[C@@H](CC1CCCCC1)NC(=O)N[C@@H](CCCN)C(=O)O)C2
(T) Nc1ccc(CC(NC(=O)N[C@H](CC2CCCCC2)C(=O)NC2CC3CCC2C3)C(=O)O)cn1 (stereo partly shown)
Ascending by pIC50, please. Put the labels in the requested order and write them down. P, T, R, S, Q
(P: 6.07, T: 6.41, R: 7.24, S: 7.74, Q: 8.05)

###

target-or-test-system: TAFIa (Homo sapiens)
assay-comment: TAFIa inhibition, Actichrome plasma TAFI activity kit (American Diagnostica)
test-parameters: 15 min preincubation at room temperature, read at 420 nm, duplicate determination of serial dilutions
Experimental: The enzymic reaction was started by adding 10 μl of TAFIa developer (prediluted 1:2 with assay buffer). The IC50 values were calculated from the averaged values (duplicate determination) of serial dilutions of the substance with the aid of the Softmax Pro software (version 4.8; Molecular Devices).
Numbered stars: 1 amine (or outer) side, 2 acyl side, 3 side chain; on linkers, the order of the positions; unused ones are H or OH. Square brackets hold non-standard residues; d marks the D form. Peptide text beside a SMILES is read from it. * marks the point of attachment. Cbz = O=C(OCc1ccccc1)*; Aib = CC(C)(N)C(=O)O; CO = O=C([*:1])[*:2]
measurement-name: IC50 (nM)

Return the recorded IC50 value; entry: NCCCC[C@H](NC(=O)N[C@H](CCCCNC(=O)OCc1ccccc1)C(=O)NC1C[C@@H]2CC[C@H]1C2)C(=O)O (stereo partly shown) [Example 43] 46

Return the recorded IC50 value; entry: CC[C@H](C)[C@H](NC(=O)[C@@H](CCCCNC(=O)OCc1ccccc1)NC(=O)N[C@@H](CCCCN)C(=O)O)C(=O)OC [Example 37] 537

Return the recorded IC50 value; entry: CC1(C)[C@@H]2CC[C@@]1(C)C(NC(=O)CC(CC1CCCCC1)NC(=O)N[C@@H](CCCN)C(=O)O)C2 (stereo partly shown) [Example 95] 41000

Return the recorded IC50 value; entry: CCOC(=O)[C@@H](NC(=O)[C@@H](CCCCNC(=O)OCc1ccccc1)NC(=O)N[C@@H](CCCCN)C(=O)O)C(C)C [Example 38] ({Lys-CO}-[dK](Cbz)-Val-OEt) 297

Return the recorded IC50 value; entry: COC(=O)C(C)(C)NC(=O)[C@@H](CCCCNC(=O)OCc1ccccc1)NC(=O)N[C@@H](CCCCN)C(=O)O [Example 25] ({Lys-CO}-[dK](Cbz)-[Aib]-OMe) 463

Return the recorded IC50 value; entry: CC1CCCCC1NC(=O)[C@@H](CCCCNC(=O)OCc1ccccc1)NC(=O)N[C@@H](CCCCN)C(=O)O (stereo partly shown) [Example 42] 839

Return the recorded IC50 value; entry: CC1(C)[C@@H]2CC[C@@]1(C)[C@@H](NC(=O)C(CC1CCCC1)NC(=O)N[C@@H](CCCCN)C(=O)O)C2 (stereo partly shown) [Example 111] 4

Return the recorded IC50 value; entry: CC1CCCCC1NC(=O)[C@@H](CC1CCCCC1)NC(=O)N[C@@H](CCCCN)C(=O)O (stereo partly shown) [Example 19] 353

(1) CC1(C)[C@@H]2CC[C@@]1(C)[C@@H](NC(=O)[C@@H](CC1CCCCC1)NC(=O)N[C@@H](CS(=O)(=O)CCN)C(=O)O)C2 [Example 142b]
(2) NCCCC[C@H](NC(=O)N[C@H](CC1CCCCC1)C(=O)NC12CC3CC(CC(C3)C1)C2)C(=O)O [Example 79]
Between these two entries, 1 and 2 , state which has the higher IC50. Which one? Tell me its label. 2

(a) CC[C@@H](C)[C@H](NC(=O)[C@@H](CCCCNC(=O)OCc1ccccc1)NC(=O)N[C@@H](CCCCN)C(=O)O)C(N)=O [Example 142]
(b) CC(C)[C@H](NC(=O)[C@@H](CCCCNC(=O)OCc1ccccc1)NC(=O)N[C@@H](CCCCN)C(=O)O)C(=O)N[C@@H](C)c1ccc(Cl)cc1 [Example 119]
(c) CC(C)[C@H](NC(=O)[C@@H](CCCCNC(=O)OCc1ccccc1)NC(=O)N[C@@H](CCCCN)C(=O)O)C(=O)N[C@H](C)c1ccccc1 [Example 122]
Could you please sort these 3 entries by IC50 from high to low? Put the labels in the requested order and write them down. a, b, c
(a: 10600 nM, b: 1300 nM, c: 525 nM)

###

target-or-test-system: TAFIa (Homo sapiens)
assay-comment: TAFIa inhibition, Actichrome plasma TAFI activity kit (American Diagnostica)
test-parameters: 15 min preincubation at room temperature, read at 420 nm, duplicate determination of serial dilutions
Numbered stars: 1 amine (or outer) side, 2 acyl side, 3 side chain; on linkers, the order of the positions; unused ones are H or OH. Square brackets hold non-standard residues; d marks the D form. Peptide text beside a SMILES is read from it. * marks the point of attachment. ξ: configuration not given here. dCha = N[C@H](CC1CCCCC1)C(=O)O; Phe(ol) = N[C@H](CO)Cc1ccccc1; Cbz = O=C(OCc1ccccc1)*; CO = O=C([*:1])[*:2]; ξV = CC(C)C(N)C(=O)O
measurement-name: IC50 (nM)

Check out these entries, answers already filled in.
Return the recorded IC50 value; entry: CC1CCCC(NC(=O)[C@@H](NC(=O)[C@@H](CCCCNC(=O)OCc2ccccc2)NC(=O)N[C@@H](CCCCN)C(=O)O)C(C)C)C1 (stereo partly shown) 615

Return the recorded IC50 value; entry: CC(C)(C)OC(=O)[C@H](CCCCN)NS(=O)(=O)N[C@@H](CC1CCCCC1)C(=O)N[C@@H]1C[C@H]2CC[C@]1(C)C2(C)C 22900

Return the recorded IC50 value; entry: CC(C)[C@H](NC(=O)[C@@H](CCCCNC(=O)OCc1ccccc1)NC(=O)N[C@@H](CCCCN)C(=O)O)C(=O)NCCCc1ccccc1 747

Return the recorded IC50 value; entry: CC(C)C(NC(=O)[C@@H](CC1CCCCC1)NC(=O)N[C@@H](CCCCN)C(=O)O)C(=O)N[C@H](CO)Cc1ccccc1 (stereo partly shown) [Example 135] ({Lys-CO}-[dCha]-[ξV]-[Phe(ol)]) 522

Return the recorded IC50 value; entry: C[C@H](NC(=O)[C@@H](CCCCNC(=O)OCc1ccccc1)NC(=O)N[C@@H](CCCCN)C(=O)O)c1ccc(Cl)cc1 144

(P) CC1(C)[C@@H]2CC[C@@]1(C)C(NC(=O)[C@H](NC(=O)N[C@@H](CCCCN)C(=O)O)C1CCCCC1)C2 (stereo partly shown)
(Q) CC(C)(C)C1CCC(NC(=O)[C@@H](CC2CCCCC2)NC(=O)N[C@@H](CCCCN)C(=O)O)CC1 (stereo partly shown)
Consider entries P and Q . Which has the numerically lower IC50? Which one? Tell me its label. Q
(Q: 60 nM, P: 1040 nM)

(A) CCNC(=O)[C@@H](NC(=O)[C@@H](CC1CCCCC1)NC(=O)N[C@@H](CCCCN)C(=O)O)C(C)C [Example 10] ({Lys-CO}-[dCha]-Val-NHEt)
(B) NCCCC[C@H](NC(=O)N[C@H](CC1CCCCC1)C(=O)NC1CCc2ccccc2C1)C(=O)O (stereo partly shown)
Between these two entries, A and B , state which has the higher IC50. Which one? Tell me its label. A
(A: 979 nM, B: 47 nM)

(P) CCOC(=O)[C@H](CC(C)C)NC(=O)[C@@H](CCCCNC(=O)OCc1ccccc1)NC(=O)N[C@@H](CCCCN)C(=O)O [Example 32] ({Lys-CO}-[dK](Cbz)-Leu-OEt)
(Q) CC1CCCC(NC(=O)[C@@H](CC2CCCCC2)NC(=O)N[C@@H](CCCCN)C(=O)O)C1C (stereo partly shown)
Between these two entries, P and Q , state which has the higher IC50. Which one? Tell me its label. P
